# test: Water solubility (Table 1)
# Assay type: physicochemical
# condition parameters: mcilvaine buffer, pH 8.02, aqueous buffer; solvent b = Mellvaine buffer(pH8.02); read-out: solubility

compound	solubility, µg/mL
CCCCCC(=O)Oc1c(C)cc(C[n+]2cnn(CC3(c4ccc(Cl)cc4Cl)OCC(COc4ccc(N5CCN(c6ccc(-n7cnn(C(C)CC)c7=O)cc6)CC5)cc4)O3)c2)cc1C (racemic)	500
